ASSAY_SYSTEM: DNA gyrase (Escherichia coli, UniProt P0AES4+P0AES6)
ASSAY_INFO: Inhibitory activity against DNA gyrase enzyme was determined by supercoiling assay with Escherichia coli DNA gyrase
Exercise: state measured IC50 for each of the compounds provided.
Please give a number only; it is taken to be in µM.

Q. Entry "CC(=O)NC[C@H]1CN(c2ccc(OC3CCN(c4nc5c(cc4F)c(=O)c(C(=O)O)cn5C4CC4)CC3)c(F)c2)C(=O)O1" needs its IC50 filled in; supply it.
A. 50

Q. Entry "CC(=O)NC[C@H]1CN(c2ccc(O[C@H]3CCN(c4nc5c(cc4F)c(=O)c(C(=O)O)cn5C4CC4)C3)c(F)c2)C(=O)O1" needs its IC50 filled in; supply it.
A. 10

Q. Entry CC(=O)NC[C@H]1CN(c2ccc(OCC3CCN(c4nc5c(cc4F)c(=O)c(C(=O)O)cn5C4CC4)C3)c(F)c2)C(=O)O1 (some centres undefined) needs its IC50 filled in; supply it.
A. 2

Q. Entry "CC(=O)NC[C@H]1CN(c2ccc(N3CCN(c4nc5c(cc4F)c(=O)c(C(=O)O)cn5C4CC4)CC3)c(F)c2)C(=O)O1" needs its IC50 filled in; supply it.
A. 50
